// reported IC50 per item
biological target: Human Cb-1 receptor (transfected CHO-K1 cell membranes) (Homo sapiens); construct: host or cells: CHO-K1; assay: Cb-1 competition receptor binding in cell membranes ([3H]CP55,940 displacement); details: 3H-CP55,940 0.5 nM, 1 hour at 25° C., read-out: Example C1 Binding pIC50 (converted)
Sequence (P21554 whole entry): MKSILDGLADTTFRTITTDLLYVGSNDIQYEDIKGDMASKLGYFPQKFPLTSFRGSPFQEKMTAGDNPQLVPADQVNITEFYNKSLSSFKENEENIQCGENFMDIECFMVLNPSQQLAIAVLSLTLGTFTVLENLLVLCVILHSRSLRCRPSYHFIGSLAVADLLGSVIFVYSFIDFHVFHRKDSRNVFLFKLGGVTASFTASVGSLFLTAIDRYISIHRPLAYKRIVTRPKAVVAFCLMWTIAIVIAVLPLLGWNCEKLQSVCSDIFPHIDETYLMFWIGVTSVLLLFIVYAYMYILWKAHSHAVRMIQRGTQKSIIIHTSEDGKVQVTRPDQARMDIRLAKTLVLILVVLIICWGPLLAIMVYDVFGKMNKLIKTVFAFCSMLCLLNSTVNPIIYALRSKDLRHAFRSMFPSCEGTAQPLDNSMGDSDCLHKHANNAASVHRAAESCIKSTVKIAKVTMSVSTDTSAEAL

{"MOLECULE": "Clc1ccc(C(c2ccc3nnn(C4CCCCC4)c3c2)n2cncn2)cc1 (racemic) [Intermediate 7]", "UNIT LABEL": "nM", "IC50": 288}
{"MOLECULE": "Clc1ccc([C@H](c2ccc3nnn(C4CCCCC4)c3c2)n2cncn2)cc1 (single isomer, unassigned) [Compound 1]", "UNIT LABEL": "nM", "IC50": 8910}
{"MOLECULE": "CC(C)CCn1nnc2ccc(C(c3ccc(Cl)cc3)n3ccnc3)cc21 (stereo not drawn)", "UNIT LABEL": "nM", "IC50": 933}
{"MOLECULE": "Cn1nnc2ccc(C(c3ccc(Cl)cc3)c3nccs3)cc21 (stereo not drawn)", "UNIT LABEL": "nM", "IC50": 5370}
{"MOLECULE": "Clc1ccc([C@H](c2ccc3nnn(C4CCCCC4)c3c2)n2cncn2)cc1 (single isomer, unassigned) [Compound 2]", "UNIT LABEL": "nM", "IC50": 141}
{"MOLECULE": "Clc1ccc(Cn2nnc3ccc(C(c4ccc(Cl)cc4)n4ccnc4)cc32)cc1 (stereo not drawn)", "UNIT LABEL": "nM", "IC50": 832}
